Examples of compounds with documented pKi follow.
Target: human AR (androgen receptor) (Homo sapiens, UniProt P10275)
Sequence (P10275 whole entry): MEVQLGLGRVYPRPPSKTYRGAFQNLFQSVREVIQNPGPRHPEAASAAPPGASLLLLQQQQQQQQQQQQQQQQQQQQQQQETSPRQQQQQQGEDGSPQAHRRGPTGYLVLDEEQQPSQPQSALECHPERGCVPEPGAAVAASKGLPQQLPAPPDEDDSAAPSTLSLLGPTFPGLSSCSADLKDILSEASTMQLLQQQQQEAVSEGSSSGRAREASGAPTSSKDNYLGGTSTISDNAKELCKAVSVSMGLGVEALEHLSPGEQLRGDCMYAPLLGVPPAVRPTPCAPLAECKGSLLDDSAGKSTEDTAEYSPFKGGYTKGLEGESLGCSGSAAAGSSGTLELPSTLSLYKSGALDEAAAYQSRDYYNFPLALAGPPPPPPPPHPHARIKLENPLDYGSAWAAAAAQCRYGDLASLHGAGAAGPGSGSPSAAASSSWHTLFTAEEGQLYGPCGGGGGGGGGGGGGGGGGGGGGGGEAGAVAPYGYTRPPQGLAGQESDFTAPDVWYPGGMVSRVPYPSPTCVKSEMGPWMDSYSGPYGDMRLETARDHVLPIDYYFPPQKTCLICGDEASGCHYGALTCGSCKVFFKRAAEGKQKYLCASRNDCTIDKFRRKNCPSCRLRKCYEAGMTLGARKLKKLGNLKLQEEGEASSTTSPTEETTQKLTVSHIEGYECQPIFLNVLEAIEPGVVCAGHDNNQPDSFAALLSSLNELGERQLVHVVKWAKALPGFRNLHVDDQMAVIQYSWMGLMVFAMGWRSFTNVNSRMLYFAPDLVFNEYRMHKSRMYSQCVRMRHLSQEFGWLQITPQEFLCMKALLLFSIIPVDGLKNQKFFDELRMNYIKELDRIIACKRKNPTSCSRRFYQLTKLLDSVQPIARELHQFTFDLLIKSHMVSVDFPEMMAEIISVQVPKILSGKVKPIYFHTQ
Assay: AR competition binding assay (HEK293 cell lysate)
Conditions: 0.36 nM 3H-methyltrienolone, 293-AR lysate
pKi: −log10 of the molar value.

Completed entries (count: 5):
Cn1cc(-c2ccc([N+](=O)[O-])cc2)c2ccc(NS(C)(=O)=O)cc21 [Example 30]: < 6.00
CC(C)n1cc(-c2ccc3c(c2)COC3=O)c2ccc(NS(C)(=O)=O)cc21 [Example 97]: < 6.00
CSc1ccc(-c2cn(C(C)C)c3cc(NS(C)(=O)=O)ccc23)cc1 [Example 83]: < 6.00
Cn1cc(-c2ccc(C#N)cc2)c2ccc(NS(C)(=O)=O)cc21 [Example 25]: < 6.00
CC(C)Cn1cc(-c2ccc(C#N)cc2)c2ccc(NS(C)(=O)=O)cc21 [Example 29]: 6.30 to 7.00

Note: attention shifts to another entry.
Dear colleague, I am looking for the recorded pKi of the following compound: CC(C)n1cc(-c2ccc(O)cc2)c2ccc(NS(C)(=O)=O)cc21 [Example 93]
6.30 to 7.00
